assayed target: Potassium voltage-gated channel subfamily KQT member 1 (Homo sapiens) (UniProt P51787)
Sequence (P51787 whole entry, looked up): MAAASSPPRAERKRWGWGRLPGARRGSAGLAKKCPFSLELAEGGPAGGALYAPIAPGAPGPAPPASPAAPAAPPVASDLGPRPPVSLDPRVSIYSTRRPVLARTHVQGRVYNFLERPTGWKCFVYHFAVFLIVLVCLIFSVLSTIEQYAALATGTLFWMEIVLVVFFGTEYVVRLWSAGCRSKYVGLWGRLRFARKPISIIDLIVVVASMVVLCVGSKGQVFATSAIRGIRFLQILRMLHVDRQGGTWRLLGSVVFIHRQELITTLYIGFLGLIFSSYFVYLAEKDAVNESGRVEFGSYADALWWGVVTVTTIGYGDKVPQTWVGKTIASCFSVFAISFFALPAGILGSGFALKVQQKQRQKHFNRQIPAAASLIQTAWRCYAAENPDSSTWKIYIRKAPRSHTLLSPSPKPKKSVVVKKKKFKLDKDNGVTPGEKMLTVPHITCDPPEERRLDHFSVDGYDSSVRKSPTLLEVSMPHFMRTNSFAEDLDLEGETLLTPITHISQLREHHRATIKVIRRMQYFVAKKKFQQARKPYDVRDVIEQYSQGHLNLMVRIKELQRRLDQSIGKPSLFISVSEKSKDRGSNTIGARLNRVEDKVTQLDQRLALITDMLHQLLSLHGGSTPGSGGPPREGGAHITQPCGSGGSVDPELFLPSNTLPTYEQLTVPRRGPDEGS
protocol description: KCNQ1 potassium channel potentiators, confirmation, FluxOR thallium flux, CHO cells, duplicates (AID 493007)
test context: KCNQ1 cell line, FluxOR thallium flux fluorescence, at 10 µM, % of reference activator effect, buffer zero
Active and inactive are the calls of the source.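 The calls were made as follows: active = potentiation averaged over duplicate wells exceeding buffer-only control mean by more than 3 SD; inactive = the rest.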
API: response.call in active, inactive

COc1ccc2c(c1)[nH]c1c(=O)n(/N=C/c3ccc(OC)c(CN4CCCC4)c3)cnc12 :: inactive
COc1cc(C(=O)CCN2CCC(c3ccccc3)C2)cc(OC)c1OC (stereo not drawn) :: inactive
CCCCNC(=O)CCc1c(C)nc2c(c(C)nn2-c2ccccc2)c1C :: inactive
N=c1sccn1CC(=O)N1N=C(c2ccc(Cl)cc2)CC1c1ccco1 (stereo not drawn) :: inactive
CC(Oc1ccc(Br)cc1)C(=O)Nc1ccc(S(=O)(=O)N(C)C2CCN(C)CC2)cc1 (stereo not drawn) :: active

Called result for COc1ccc2nc(NC(=S)NC(=O)c3ccco3)sc2c1
active

Called result for COC(=O)C1CCN(C(=O)Nc2ccc(OC)cc2)CC1
active

Called result for Cc1ccc(C)c2sc(NC(=O)c3nc4ccccc4s3)nc12
active
